test system: human red blood cells; experiment: Hemolytic assay; format: cell-based; conditions: red cells of human, 100
experimentalEndpoint: % Hemolysis 100 μg/ml
Number first, unit second: that is the form wanted.

# input compound: `CSCC[C@H](NC(=O)[C@H](CCCNC(=N)N)NC(=O)[C@H](Cc1c[nH]c2ccccc12)NC(=O)[C@H](CCC(N)=O)NC(=O)[C@H](Cc1c[nH]c2ccccc12)NC(=O)[C@H](CCCNC(=N)N)NC(=O)[C@H](CCCNC(=N)N)NC(=O)[C@H](Cc1c[nH]c2ccccc12)NC(=O)[C@H](CCCCN)NC(=O)[C@@H](N)Cc1ccccc1)C(=O)N[C@@H](CCCCN)C(=O)N[C@@H](CCCCN)C(=O)N[C@@H](CC(C)C)C(=O)NCC(=O)N[C@@H](C)C(=O)O` ; wanted: its % Hemolysis 100 μg/ml
3.8%

----------
system: Escherichia coli ATCC 25922; type: cell-based; conditions: ATCC 25922
Square brackets hold non-standard residues; d marks the D form. Peptide text beside a SMILES is read from it. * marks the point of attachment. Trp(2-Pmc) = Cc1c(C)c(S(=O)(=O)c2[nH]c3ccccc3c2C[C@H](N)C(=O)O)c(C)c2c1OC(C)(C)CC2; Acm = CC(=O)NC*
experimentalEndpoint: MIC E. coli (µg/mL)
Give bare numbers, in µg/mL.

compound	systemUnderTest	MIC E. coli [µg/mL]
CSCC[C@H](NC(=O)[C@H](CCCNC(=N)N)NC(=O)[C@H](C)NC(=O)[C@H](CCC(N)=O)NC(=O)[C@H](Cc1c(S(=O)(=O)c2c(C)c(C)c3c(c2C)CCC(C)(C)O3)[nH]c2ccccc12)NC(=O)[C@H](CCCNC(=N)N)NC(=O)[C@H](CCCNC(=N)N)NC(=O)[C@H](CSCNC(C)=O)NC(=O)[C@H](CCCCN)NC(=O)[C@@H](N)Cc1ccccc1)C(=O)N[C@@H](CCCCN)C(=O)N[C@@H](CCCCN)C(=O)N[C@@H](CC(C)C)C(=O)NCC(=O)N[C@@H](C)C(=O)O [LFB A8 PMC] (H-FKC(Acm)RR[Trp(2-Pmc)]QARMKKLGA-OH)	Escherichia coli ATCC 25922	15

# ---- query compound ----
# input compound: `CSCC[C@H](NC(=O)[C@H](CCCNC(=N)N)NC(=O)[C@H](Cc1c[nH]c2ccccc12)NC(=O)[C@H](CCC(N)=O)NC(=O)[C@H](Cc1c[nH]c2ccccc12)NC(=O)[C@H](CCCNC(=N)N)NC(=O)[C@H](CCCNC(=N)N)NC(=O)[C@H](CSCNC(C)=O)NC(=O)[C@H](CCCCN)NC(=O)[C@H](Cc1ccccc1)NC(=O)[C@H](Cc1c[nH]c2ccccc12)NC(=O)[C@H](CCC(=O)O)NC(=O)[C@@H]1CCCN1)C(=O)N[C@@H](CCCCN)C(=O)N[C@@H](CCCCN)C(=O)N[C@@H](CC(C)C)C(=O)NCC(=O)N[C@@H](C)C(=O)O` ; wanted: its MIC E. coli
70

----------
system: Escherichia coli ATCC 25922; type: cell-based; details: ATCC 25922
Peptide text beside a SMILES is read from it. * marks the point of attachment. Acm = CC(=O)NC*
experimentalEndpoint: MIC E. coli

Lookup: MIC E. coli / Escherichia coli ATCC 25922 / CSCC[C@H](NC(=O)[C@H](CCC(=O)O)NC(=O)[C@H](CC(N)=O)NC(=O)[C@H](CCC(N)=O)NC(=O)[C@H](Cc1c[nH]c2ccccc12)NC(=O)[C@H](CCCNC(=N)N)NC(=O)[C@H](CC(C)C)NC(=O)[C@H](CSCNC(C)=O)NC(=O)[C@H](CCCCN)NC(=O)[C@@H](N)CCC(=O)O)C(=O)N[C@@H](CCCNC(=N)N)C(=O)N[C@@H](CCCCN)C(=O)N[C@H](C(=O)NCC(=O)NCC(=O)O)C(C)C [LFM, EKCLRWQNEMRKVGG] (H-EKC(Acm)LRWQNEMRKVGG-OH; N-terminus assumed)
>1000 mg/L

----------
tested on: Staphylococcus aureus ATCC 25923; type: cell-based; conditions: ATCC 25923
Ends that are not written are not given here.
Would you mind telling me the reported MIC S. aureus of each entry?
Numbers only, in µg/mL.

Past entries and their recorded results:
substance	MIC S. aureus (µg/mL)
PAWRKAFRWAWRMKKLAA-OH [LFB 14-31 A2,6, 10, 17F7R4]	2.5
YRWARWWRR-NH2 [LFM 17-25 A4R2,8, 9W3, 7Y1NH2]	5
H-FKWRRWWWRMKKLWA-OH [LFB W3, 7, 14]	20

Give me MIC S. aureus for each of these substances, listed below.
1. H-FKARRWQWRMKKLGA-OH [LFB A3]
2. RRWYRWWR-NH2 [LFM 17-24 R1,2, 8 W3, 7Y4NH2]
3. PAWFKAFRWAWRMLKKAA-OH [LFB 14-31 A2,6, 10, 17F7K16L14]
4. PAWRKARRWAWRMKKLAA-OH [LFB 14-31 A2,6, 10, 17R4]

1: 100; 2: 2.5; 3: 10; 4: 20

----------
tested on: human red blood cells; assay: Hemolytic assay; assay type: cell-based; details: red cells of human, 100
Peptide text beside a SMILES is read from it. * marks the point of attachment. Fmoc = O=C(OCC1c2ccccc2-c2ccccc21)*; Acm = CC(=O)NC*
experimentalEndpoint: % Hemolysis 100 μg/ml
Number first, unit second: that is the form wanted.

compound	experimentalEndpoint	experimentalResult
CSCC[C@H](NC(=O)[C@H](CCCNC(=N)N)NC(=O)[C@H](Cc1ccc2ccccc2c1)NC(=O)[C@H](CCC(N)=O)NC(=O)[C@H](Cc1c[nH]c2ccccc12)NC(=O)[C@H](CCCNC(=N)N)NC(=O)[C@H](CCCNC(=N)N)NC(=O)[C@H](CSCNC(C)=O)NC(=O)[C@H](CCCCN)NC(=O)[C@@H](N)Cc1ccccc1)C(=O)N[C@@H](CCCCN)C(=O)N[C@@H](CCCCN)C(=O)N[C@@H](CC(C)C)C(=O)NCC(=O)N[C@@H](C)C(=O)O	% Hemolysis 100 μg/ml	4.7%

Give me % Hemolysis 100 μg/ml for each of these compounds, listed below.
1. CSCC[C@H](NC(=O)[C@H](CCC(=O)O)NC(=O)[C@H](CC(N)=O)NC(=O)[C@H](CCC(N)=O)NC(=O)[C@H](Cc1c[nH]c2ccccc12)NC(=O)[C@H](CCCNC(=N)N)NC(=O)[C@H](CC(C)C)NC(=O)[C@H](CSCNC(C)=O)NC(=O)[C@H](CCCCN)NC(=O)[C@@H](N)CCC(=O)O)C(=O)N[C@@H](CCCNC(=N)N)C(=O)N[C@@H](CCCCN)C(=O)N[C@H](C(=O)NCC(=O)NCC(=O)O)C(C)C [LFM, EKCLRWQNEMRKVGG] (H-EKC(Acm)LRWQNEMRKVGG-OH; N-terminus assumed)
2. CSCC[C@H](NC(=O)[C@H](C)NC(=O)[C@H](Cc1c[nH]c2ccccc12)NC(=O)[C@H](CCC(N)=O)NC(=O)[C@H](Cc1c[nH]c2ccccc12)NC(=O)[C@H](CCCNC(=N)N)NC(=O)[C@H](CC(C)C)NC(=O)[C@H](CSCNC(C)=O)NC(=O)[C@H](CCCCN)NC(=O)[C@H](C)N)C(=O)N[C@@H](CCCNC(=N)N)C(=O)N[C@@H](CCCCN)C(=O)N[C@H](C(=O)NCC(=O)NCC(=O)O)C(C)C [LFM A1, 9 W8] (H-AKC(Acm)LRWQWAMRKVGG-OH; N-terminus assumed)
3. CSCC[C@H](NC(=O)[C@H](CCCNC(=N)N)NC(=O)[C@H](Cc1ccc2ccccc2c1)NC(=O)[C@H](CCC(N)=O)NC(=O)[C@H](Cc1c(S(=O)(=O)c2c(C)c(C)c3c(c2C)CCC(C)(C)O3)[nH]c2ccccc12)NC(=O)[C@H](CCCNC(=N)N)NC(=O)[C@H](CCCNC(=N)N)NC(=O)[C@H](CSCNC(C)=O)NC(=O)[C@H](CCCCN)NC(=O)[C@@H](N)Cc1ccccc1)C(=O)N[C@@H](CCCCN)C(=O)N[C@@H](CCCCN)C(=O)N[C@@H](CC(C)C)C(=O)NCC(=O)N[C@@H](C)C(=O)O
4. CSCC[C@H](NC(=O)[C@H](CCCNC(=N)N)NC(=O)[C@H](C)NC(=O)[C@H](CCC(N)=O)NC(=O)[C@H](Cc1c[nH]c2ccccc12)NC(=O)[C@H](CCCNC(=N)N)NC(=O)[C@H](CCCNC(=N)N)NC(=O)[C@H](CSCNC(C)=O)NC(=O)[C@H](CCCCN)NC(=O)[C@H](Cc1ccccc1)NC(=O)OCC1c2ccccc2-c2ccccc21)C(=O)N[C@@H](CCCCN)C(=O)N[C@@H](CCCCN)C(=O)N[C@@H](CC(C)C)C(=O)NCC(=O)N[C@@H](C)C(=O)O [LFB A8 FMOC] (Fmoc-FKC(Acm)RRWQARMKKLGA-OH)

["3.1%", "3.7%", "18.86%", "7.79%"]
